Reported abundance fitness values for the following variants.
B1: Poly(rC)-binding protein 1, residues 278 to 350; numbered along this chain, Q15365 (parent)
chain: TQTTHELTIPNNLIGCIIGRQGANINEIRQMSGAQIKIANPVEGSSGRQVTITGSAASISLAQYLINARLSSE

Variants of: B1
ASSAY_REMARKS: abundance fitness (aPCA) (normalised: wild type 0, dead -1); higher = more abundant; growth selection in yeast, the domain comes from the species named
RUN_PARAMETERS: Homo sapiens

Req: # query: abundance fitness of entry C16P
Resp: -0.045

Req: # query: abundance fitness of entry S32T
Resp: -0.16

Req: # query: abundance fitness of entry S45Q
Resp: -0.054
